Molecular target: T1, rhesus OX40 expressed on HEK293A cells (rhesus, UniProt P43489 29-277 (human entry))
T1 construct: also called HEK293A/rhOX40; HEK293A/rhesusOX40 cells
T1 chain: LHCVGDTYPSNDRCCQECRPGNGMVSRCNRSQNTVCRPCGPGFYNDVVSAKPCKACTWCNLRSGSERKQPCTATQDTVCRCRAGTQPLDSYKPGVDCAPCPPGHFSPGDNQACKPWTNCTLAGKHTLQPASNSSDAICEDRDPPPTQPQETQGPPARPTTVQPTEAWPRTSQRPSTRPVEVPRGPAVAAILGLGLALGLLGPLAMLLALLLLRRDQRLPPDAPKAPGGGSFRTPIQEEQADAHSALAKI
Experiment: FACS on HEK293A/rhesus OX40 cells, MFI (panel without title; monkey OX40 by the legend)
RECORDED_METRIC: binding result

// below: answered binders
Please give the measured binding result for this binder: 68C8-VH3VL3 (antibody, human IgG1, kappa, V domains shown, humanized; also called 68C8-H3L3) VH: QVQLVQSGAEVKKPGASVKVSCKVSGDTFTSYWITWVRQRPGQGLEWIGDIHPGSGSTNNNEKFKNRVTLTVDTSTDTAYMELSSLRSEDTAVYYCATLRPYYFVYWGQGTLVTVSS VL: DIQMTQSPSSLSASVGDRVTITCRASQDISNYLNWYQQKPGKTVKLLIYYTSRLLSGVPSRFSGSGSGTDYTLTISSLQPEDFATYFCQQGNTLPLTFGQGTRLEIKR
binds

Bench note: what binding result did 68C8-VH3VL2 (antibody, human IgG1, kappa, V domains shown, humanized; also called 68C8-H3L2) VH: QVQLVQSGAEVKKPGASVKVSCKVSGDTFTSYWITWVRQRPGQGLEWIGDIHPGSGSTNNNEKFKNRVTLTVDTSTDTAYMELSSLRSEDTAVYYCATLRPYYFVYWGQGTLVTVSS VL: DIQMTQSPSSLSASVGDRVTITCRASQDISNYLNWYQQKPGKTPKLLIYYTSRLLSGVPSRFSGSGSGTDYTLTISSLQPEDFATYYCQQGNTLPLTFGQGTRLEIKR show?
binds

Bench note: what binding result did 71H8-VH0VL0 (antibody, human IgG1, kappa, V domains shown, humanized; also called 71H8-H0L0) VH: QVQLVQSGAEVKKPGASVKVSCKVSGDTFTSYWITWVRQAPGKGLEWMGDIYPGSGSTNQNEKFKSRVTMTEDTSTDTAYMELSSLRSEDTAVYYCATLRPYYFVYWGQGTLVTVSS VL: DIQMTQSPSSLSASVGDRVTITCRASQDISNYLNWYQQKPGKAPKLLIYYTSRLLSGVPSRFSGSGSGTDFTLTISSLQPEDFATYYCQQGNTLPLTFGQGTRLEIKR show?
binds

Item under review: 71H8-VH2VL2 (antibody, human IgG1, kappa, V domains shown, humanized; also called 71H8-H2L2) VH: QVQLVQSGAEVKKPGASVKVSCKVSGYTFTSYWITWVRQRPGKGLEWMGDIYPGSGSTNQNEKFKSRVTMTVDTSTDTAYMELSSLRSEDTAVYYCATLRPYYFVYWGQGTLVTVSS VL: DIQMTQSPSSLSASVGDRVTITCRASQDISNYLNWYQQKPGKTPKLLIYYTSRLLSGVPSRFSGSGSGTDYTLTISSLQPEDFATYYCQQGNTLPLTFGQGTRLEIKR . Reported binding result?
binds

For 68C8-VH2VL2 (antibody, human IgG1, kappa, V domains shown, humanized; also called 68C8-H2L2) VH: QVQLVQSGAEVKKPGASVKVSCKVSGDTFTSYWITWVRQRPGKGLEWMGDIHPGSGSTNNNEKFKNRVTMTVDTSTDTAYMELSSLRSEDTAVYYCATLRPYYFVYWGQGTLVTVSS VL: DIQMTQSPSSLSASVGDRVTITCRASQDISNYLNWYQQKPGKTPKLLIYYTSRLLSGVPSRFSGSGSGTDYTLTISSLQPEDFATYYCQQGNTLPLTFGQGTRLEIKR , what is its reported binding result?
binds

---
Please give the measured binding result for this binder: 71H8-VH2VL3 (antibody, human IgG1, kappa, V domains shown, humanized; also called 71H8-H2L3; 71H8H2L3) VH: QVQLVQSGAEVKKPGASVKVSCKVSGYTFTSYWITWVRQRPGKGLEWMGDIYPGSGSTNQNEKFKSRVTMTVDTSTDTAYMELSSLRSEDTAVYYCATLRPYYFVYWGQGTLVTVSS VL: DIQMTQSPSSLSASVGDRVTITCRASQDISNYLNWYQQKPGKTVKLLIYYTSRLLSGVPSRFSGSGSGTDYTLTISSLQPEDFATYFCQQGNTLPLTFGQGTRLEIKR
binds

So what's the measured binding result for this one? 71H8-VH3VL2 (antibody, human IgG1, kappa, V domains shown, humanized; also called 71H8-H3L2) VH: QVQLVQSGAEVKKPGASVKVSCKVSGYTFTSYWITWVRQRPGQGLEWIGDIYPGSGSTNQNEKFKSRVTLTVDTSTDTAYMELSSLRSEDTAVYYCATLRPYYFVYWGQGTLVTVSS VL: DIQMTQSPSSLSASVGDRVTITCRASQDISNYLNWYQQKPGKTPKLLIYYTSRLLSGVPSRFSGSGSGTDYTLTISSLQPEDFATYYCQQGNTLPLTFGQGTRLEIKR
binds

For the binder 71H8-VH3VL3 (antibody, human IgG1, kappa, V domains shown, humanized; also called 71H8-H3L3) VH: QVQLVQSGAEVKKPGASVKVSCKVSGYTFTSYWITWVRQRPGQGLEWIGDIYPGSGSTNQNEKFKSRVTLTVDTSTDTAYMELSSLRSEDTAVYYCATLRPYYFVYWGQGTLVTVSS VL: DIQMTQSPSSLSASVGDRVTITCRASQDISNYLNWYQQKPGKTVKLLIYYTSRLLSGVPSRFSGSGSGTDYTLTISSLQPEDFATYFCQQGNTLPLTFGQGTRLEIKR , what binding result is on record?
binds

Give its binding result value. Item: 68C8-VH0VL0 (antibody, human IgG1, kappa, V domains shown, humanized; also called 68C8-H0L0) VH: QVQLVQSGAEVKKPGASVKVSCKVSGDTFTSYWITWVRQAPGKGLEWMGDIHPGSGSTNNNEKFKNRVTMTEDTSTDTAYMELSSLRSEDTAVYYCATLRPYYFVYWGQGTLVTVSS VL: DIQMTQSPSSLSASVGDRVTITCRASQDISNYLNWYQQKPGKAPKLLIYYTSRLLSGVPSRFSGSGSGTDFTLTISSLQPEDFATYYCQQGNTLPLTFGQGTRLEIKR
binds

Tell me the measured binding result of 68C8-VH2VL3 (antibody, human IgG1, kappa, V domains shown, humanized; also called 68C8-H2L3; 68C8H2L3) VH: QVQLVQSGAEVKKPGASVKVSCKVSGDTFTSYWITWVRQRPGKGLEWMGDIHPGSGSTNNNEKFKNRVTMTVDTSTDTAYMELSSLRSEDTAVYYCATLRPYYFVYWGQGTLVTVSS VL: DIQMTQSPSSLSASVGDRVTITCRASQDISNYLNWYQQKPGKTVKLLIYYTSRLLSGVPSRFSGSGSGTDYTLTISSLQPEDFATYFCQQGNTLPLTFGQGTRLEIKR , please.
binds
